- test-target: TetR (class B, Tn10) (UniProt P04483)
- Sequence (P04483 whole entry): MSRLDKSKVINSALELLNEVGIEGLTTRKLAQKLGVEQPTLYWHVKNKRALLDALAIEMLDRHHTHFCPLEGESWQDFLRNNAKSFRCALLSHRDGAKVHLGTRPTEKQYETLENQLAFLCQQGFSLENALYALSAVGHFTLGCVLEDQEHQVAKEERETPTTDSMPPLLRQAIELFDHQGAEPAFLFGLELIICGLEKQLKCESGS
- method: TetR repression strength (sort-seq, GFP reporter) (relative to tetO2 = 1); higher = stronger repression
- experimental-conditions: E. coli
Whole data set: some 18,000 sequences, median “TetR repression strength (sort-seq, GFP reporter)” near 0.23, cut for the highest 2% near 0.68. Only a selection was taken, and the highest values are over-represented in it overall.
# label = true (1) if TetR repression strength >= 0.3 else false (0)

Here are 3 sequences together with their reported answers.
Prompt line: Item TCCCTATGAGTGAGCGAGA with TetR repression strength of 0.3 or above?
Response line: false (0)

Prompt line: Item TCCCTAACAGTGATGGAGA with TetR repression strength of 0.3 or above?
Response line: false (0)

Prompt line: Item TCCCTTAAAGTATGCGAGA with TetR repression strength of 0.3 or above?
Response line: false (0)

***
Prompt line: Item TCCCTGCGAGTGGGGGAGA with TetR repression strength of 0.3 or above?
Response line: false (0)

Prompt line: Item TCCCTCTCAGTGATGGAGA with TetR repression strength of 0.3 or above?
Response line: true (1)

Prompt line: Item TCCCGGGTAGTTAATGAGA with TetR repression strength of 0.3 or above?
Response line: true (1)

Prompt line: Item TCCCTGCTAGTGGAGGAGA with TetR repression strength of 0.3 or above?
Response line: true (1)

Prompt line: Item TCCCTGCTAGTGGCAGAGA with TetR repression strength of 0.3 or above?
Response line: false (0)

Prompt line: Item TCCCTATCAGTCATTGAGA with TetR repression strength of 0.3 or above?
Response line: true (1)

Prompt line: Item TCCCCCAGAGTTAACGAGA with TetR repression strength of 0.3 or above?
Response line: false (0)

Prompt line: Item TCCCCGCCAGTTGGCGAGA with TetR repression strength of 0.3 or above?
Response line: false (0)

Prompt line: Item TCCCTGTCAGTGAGCGAGA with TetR repression strength of 0.3 or above?
Response line: true (1)

Prompt line: Item TCCCTGCGAGTGGAGGAGA with TetR repression strength of 0.3 or above?
Response line: true (1)

Prompt line: Item TCCCTGGTAGTGGAGGAGA with TetR repression strength of 0.3 or above?
Response line: false (0)

Prompt line: Item TCCCAATGAGTAGGGGAGA with TetR repression strength of 0.3 or above?
Response line: false (0)

* * *

# TetR repression strength values compiled below
- test-target: TetR (class B, Tn10)
- method: TetR repression strength (sort-seq, GFP reporter) (relative to tetO2 = 1); higher = stronger repression
- experimental-conditions: E. coli
Whole data set: some 18,000 sequences, median “TetR repression strength (sort-seq, GFP reporter)” near 0.23, cut for the highest 2% near 0.68. The list comes from a sample in which the highest values are over-represented; it also holds close analogues and randomly drawn sequences.
Just the number.

Prompt line: // returns reported TetR repression strength for input TCCCCCCAAGTCGGCGAGA
Response line: 0.00669

Prompt line: // returns reported TetR repression strength for input TCCCTGGCAGTCGGGGAGA
Response line: 0.473

Prompt line: // returns reported TetR repression strength for input TCCCCCCGAGTACGTGAGA
Response line: 0.839

Prompt line: // returns reported TetR repression strength for input TCCCTCCTAGTGTGGGAGA
Response line: 0.194

Prompt line: // returns reported TetR repression strength for input TCCCCGTGAGTACGTGAGA
Response line: 0.226

Prompt line: // returns reported TetR repression strength for input TCCCCTCTAGTACGTGAGA
Response line: 0.207

Prompt line: // returns reported TetR repression strength for input TCCCAACTAGTAAATGAGA
Response line: 0.567

From here, focus on the item given below.
Prompt line: // returns reported TetR repression strength for input TCCCGCCAAGTGCGCGAGA
Response line: 0.258

* * *

# TetR repression strength values compiled below
- test-target: TetR (class B, Tn10)
- method: TetR repression strength (sort-seq, GFP reporter) (relative to tetO2 = 1); higher = stronger repression
- experimental-conditions: E. coli
The full ranking holds about 18,000 sequences; the median of “TetR repression strength (sort-seq, GFP reporter)” is about 0.23, and the highest 2% start at about 0.68. The sample holds the highest values, similar sequences and a random draw of the others, so the mix is not that of the screen.
Just the number.

These solved cases illustrate the format of a correct answer.
Prompt line: // returns reported TetR repression strength for input TCCCCTAGAGTCTGAGAGA
Response line: 0.122

Prompt line: // returns reported TetR repression strength for input TCCCATCTAGTATCGGAGA
Response line: 0.908

Prompt line: // returns reported TetR repression strength for input TCCCTTTCAGTGACTGAGA
Response line: 0.435

Prompt line: // returns reported TetR repression strength for input TCCCGGGGAGTGTTAGAGA
Response line: 0.247

Prompt line: // returns reported TetR repression strength for input TCCCGTACAGTTGATGAGA
Response line: 0.2

***
Prompt line: // returns reported TetR repression strength for input TCCCTATCAGTTATAGAGA
Response line: 0.809

Prompt line: // returns reported TetR repression strength for input TCCCCTACAGTTCATGAGA
Response line: 0.189

Prompt line: // returns reported TetR repression strength for input TCCCAGTGAGTTGCCGAGA
Response line: 0.212

Prompt line: // returns reported TetR repression strength for input TCCCGAACAGTAACGGAGA
Response line: 0.571

Prompt line: // returns reported TetR repression strength for input TCCCCTCGAGTCTGAGAGA
Response line: 0.89

Prompt line: // returns reported TetR repression strength for input TCCCGATCAGTGACTGAGA
Response line: 0.427

Prompt line: // returns reported TetR repression strength for input TCCCGATCAGTTAGGGAGA
Response line: 0.313

Prompt line: // returns reported TetR repression strength for input TCCCATCTAGTGCGTGAGA
Response line: 0.708

* * *

- test-target: TetR (class B, Tn10)
- method: TetR repression strength (sort-seq, GFP reporter) (relative to tetO2 = 1); higher = stronger repression
- experimental-conditions: E. coli
The full ranking holds about 18,000 sequences; the median of “TetR repression strength (sort-seq, GFP reporter)” is about 0.23, and the highest 2% start at about 0.68. The sample as a whole holds a higher share of the highest values than the screen did.
quantity-measured: TetR repression strength
Just the number.

These solved cases illustrate the format of a correct answer.
Prompt line: // returns reported TetR repression strength for input TCCCGTTCAGTCTCAGAGA
Response line: 0.307

Prompt line: // returns reported TetR repression strength for input TCCCTAGTAGTACGAGAGA
Response line: 1.22

Prompt line: // returns reported TetR repression strength for input TCCCTATGAGTGGGCGAGA
Response line: 0.164

Prompt line: // returns reported TetR repression strength for input TCCCCTATAGTACAGGAGA
Response line: 0.792

Prompt line: // returns reported TetR repression strength for input TCCCGGCTAGTACGGGAGA
Response line: 0.244

Prompt line: // returns reported TetR repression strength for input TCCCAACAAGTGAATGAGA
Response line: 0.336

***
Prompt line: // returns reported TetR repression strength for input TCCCCTAAAGTACAGGAGA
Response line: 0.0737

Prompt line: // returns reported TetR repression strength for input TCCCTATAAGTAGGAGAGA
Response line: 0.228

Prompt line: // returns reported TetR repression strength for input TCCCCCCTAGTTGTGGAGA
Response line: 0.213

Prompt line: // returns reported TetR repression strength for input TCCCCATTAGTGTACGAGA
Response line: 0.425

Prompt line: // returns reported TetR repression strength for input TCCCGAGCAGTGGAGGAGA
Response line: 0.35

Prompt line: // returns reported TetR repression strength for input TCCCTTCCAGTTCACGAGA
Response line: 0.325

* * *

- test-target: TetR (class B, Tn10)
- method: TetR repression strength (sort-seq, GFP reporter) (relative to tetO2 = 1); higher = stronger repression
- experimental-conditions: E. coli
Over roughly 18,000 sequences, “TetR repression strength (sort-seq, GFP reporter)” has its median near 0.23; the highest 2% begin near 0.68. This is one part of a sample in which the highest values are shown more often than they occur.
# TetR repression strength values compiled below
Just the number.

Prompt line: // returns reported TetR repression strength for input TCCCAGGCAGTTGAGGAGA
Response line: 0.216

Prompt line: // returns reported TetR repression strength for input TCCCATGAAGTAAGGGAGA
Response line: 0.284

Prompt line: // returns reported TetR repression strength for input TCCCAGGGAGTACTCGAGA
Response line: 0.275

Prompt line: // returns reported TetR repression strength for input TCCCAGTCAGTTGAAGAGA
Response line: 0.858

***
Prompt line: // returns reported TetR repression strength for input TCCCACTGAGTGCCTGAGA
Response line: 0.139

Prompt line: // returns reported TetR repression strength for input TCCCGATGAGTTAGCGAGA
Response line: 0.201

Prompt line: // returns reported TetR repression strength for input TCCCGATGAGTTAAGGAGA
Response line: 0.797

Provenance of the data: a collection of fitness landscapes (doi:10.1038/s41467-024-54723-y)
